Just for reference, patent US20050154189A1 is where these values come from.

- test.target: T1, Soluble CD28-Ig (human, UniProt P10747 19-152, biotin-conjugated (NHS-biotin) in the labelled-ligand FACS assays)
- T1 construct: extracellular domain; Bought from R&D Systems; also called sCD28-Ig; CD28-Ig Fc; not shown: Fc portion of human IgG1
- experiment.summary: two-colour FACS profile on transfected cells; score of preference for CD28-Ig over CTLA-4-Ig vs WT hB7-1
readout.label: Binding Score

Items follow; give Binding Score for each.
1. Round 2 CD28BP-4 (ligand) ITPKSVTKRVKETVMLSCDYNTSTEELTSLRIYWQKDSKMVLAILPGKVQVWPEYKNRTITDMNDNPRIVILALRLSDSGTYTCVIQKPVLKGAYKLEHLASVRLMIRADFPVPTINDLGNPSPNIRRLICSTSGGFPRPHLCWLENGEELNATNTTVSQDPGTELYMISSELDFNVTNNHSIVCLIKYGELSVSQIFPWSKPKQEPPIDQLPFWVIIPVSGALVLTAVVLYCLACRHVARWKRTRRNEETVGTERLSPIYLGSAQSSG
2. Round 2 CD28BP-15 (ligand, Full-length clone on transiently or stably transfected 293 cells; The end 303 is the end of the entry as counted; also called R2 CD28BP-15; clone 15) ITPKSVTKRVKETVMLSCDYNTSTEELTSLRIYWQKDSKMVLAILPGKVQVWPEYKNRTITDMNDNPRIVILALRPSDSGTYTCVIQKPVLKGAYKLEHLASVRLMIRADFPVPTINDLGNPSPNIRRLICSTSGGFPRPHLYWLENGEELNATNTTVSQDPGTELYMISSELDFNVTNNHSIVCLIKYGELSVSQIFPWSKPKQEPPIDQLPFWVIIPVSGALVLTAVVLYCLACRHVARWKRTRRNEETVGTERLSPIYLGSAQSSG

1. 2
2. 2
